Target: Epidermal growth factor receptor (Homo sapiens) (UniProt P00533)
Sequence (P00533 whole entry, looked up): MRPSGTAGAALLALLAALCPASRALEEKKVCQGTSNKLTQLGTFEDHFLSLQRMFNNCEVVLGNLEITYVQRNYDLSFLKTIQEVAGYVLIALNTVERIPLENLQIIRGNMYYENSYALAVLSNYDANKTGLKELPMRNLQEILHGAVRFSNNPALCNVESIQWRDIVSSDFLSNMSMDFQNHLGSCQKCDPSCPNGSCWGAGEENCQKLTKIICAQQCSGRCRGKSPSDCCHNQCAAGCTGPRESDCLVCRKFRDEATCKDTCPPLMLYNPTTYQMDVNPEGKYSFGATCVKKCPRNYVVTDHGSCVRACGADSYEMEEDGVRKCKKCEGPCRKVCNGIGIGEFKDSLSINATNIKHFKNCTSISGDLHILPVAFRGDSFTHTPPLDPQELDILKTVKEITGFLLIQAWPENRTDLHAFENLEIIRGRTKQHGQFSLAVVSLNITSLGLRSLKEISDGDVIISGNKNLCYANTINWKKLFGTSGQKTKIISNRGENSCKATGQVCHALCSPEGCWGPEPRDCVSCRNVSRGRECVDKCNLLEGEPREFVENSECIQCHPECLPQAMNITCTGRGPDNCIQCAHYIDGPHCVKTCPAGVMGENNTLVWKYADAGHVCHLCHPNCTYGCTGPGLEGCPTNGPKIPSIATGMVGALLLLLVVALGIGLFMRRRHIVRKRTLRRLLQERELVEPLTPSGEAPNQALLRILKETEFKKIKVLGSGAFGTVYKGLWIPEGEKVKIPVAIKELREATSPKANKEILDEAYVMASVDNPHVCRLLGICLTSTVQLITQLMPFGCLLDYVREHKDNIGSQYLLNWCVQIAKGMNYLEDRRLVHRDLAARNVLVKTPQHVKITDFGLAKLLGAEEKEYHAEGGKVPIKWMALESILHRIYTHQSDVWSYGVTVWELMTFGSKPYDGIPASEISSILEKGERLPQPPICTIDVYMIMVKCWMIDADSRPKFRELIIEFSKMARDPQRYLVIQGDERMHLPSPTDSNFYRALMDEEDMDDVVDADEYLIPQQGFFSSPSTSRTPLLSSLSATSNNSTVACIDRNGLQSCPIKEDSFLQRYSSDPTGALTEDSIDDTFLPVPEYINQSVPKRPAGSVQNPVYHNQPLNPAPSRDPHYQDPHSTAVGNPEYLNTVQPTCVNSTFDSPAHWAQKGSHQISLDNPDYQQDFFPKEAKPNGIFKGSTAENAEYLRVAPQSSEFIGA
Experiment: EGFR binders on small-molecule microarrays, primary screen, biochemical, small-molecule microarray, 635 nm fluorescence (AID 1104);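 further: score merges 667 nm emission intensity with spot signal to noise over triplicate slides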
Conditions: EGFR binding, higher = more signal
The entries below are paired with their reported composite z-score.
measuredParameter: composite z-score

compound: COc1ccc(CCNC(=O)[C@@H]2c3ccccc3C(=O)N(C(C)C)[C@H]2c2ccc(CO)cc2)cc1
reportedValue: -0.736
//
compound: O=C1NC(=O)C2C1C=CC(C(O)C(O)CO)N2Nc1ccccn1 (centres undefined)
reportedValue: 0.386
//
compound: COCCOC(=O)N1C(=O)[C@@]2(c3cc(C#CCNC(N)=O)ccc31)[C@H](C(N)=O)[C@H]1C(=O)O[C@H](c3ccccc3)[C@H](c3ccccc3)N1[C@@H]2c1ccc(O)cc1
reportedValue: -0.278
//
compound: C=CCNC(=O)[C@@H]1[C@H]2C(=O)O[C@H](c3ccccc3)[C@H](c3ccccc3)N2[C@H](c2ccc(OCCO)cc2)[C@@]12C(=O)Nc1ccc(C#CCNC(N)=O)cc12
reportedValue: -1.13

---

The entries below are paired with their reported z-score.
Test: Plasmodium falciparum growth inhibition, primary screen, strain 3D7, DAPI fluorescence, 100 nL (AID 1184);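 further: parasites grown inside human red blood cells in medium with human serum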
Details: P. falciparum 3D7 growth, 3 d, higher = more signal

molecule: C#CCN(C(=O)OC(C)(C)C)[C@H](CO)c1ccccc1
z-score: -0.333
--
molecule: COc1ccc(NN2C(C(O)c3ccccc3)C=CC3C(=O)N(C4CCCCC4)C(=O)C32)cc1 (stereo not drawn)
z-score: -1.08
--
molecule: CC(CO)N1C(=O)[C@@H]2[C@H]3C(=O)OCC=C[C@H]3OC23C=CCN(c2ccc4ccccc4c2)C(=O)[C@@H]13 (stereo partly drawn)
z-score: 0.48
--
molecule: COCCOC(=O)N1C(=O)[C@@]2(c3cc(C#CCC(C(=O)OC)C(=O)OC)ccc31)[C@H](c1ccc(O)cc1)N1[C@H](c3ccccc3)[C@H](c3ccccc3)OC(=O)[C@H]1[C@@H]2C(=O)N1CCc2cc(OC)c(OC)cc2C1
z-score: -2.15
--
molecule: Cc1c(NC(=O)/C(C#N)=C/C=C/c2ccc([N+](=O)[O-])cc2)c(=O)n(-c2ccccc2)n1C
z-score: -0.363
--
molecule: CC(C)(C)OC(=O)CC[C@@]1(C(N)=O)N=C(c2ccc(OCCCO)cc2)O[C@@H]1c1ccccc1CN=[N+]=[N-]
z-score: 1.1
--
molecule: CS(=O)(=O)CCOC(=O)C1=CC(CCCO)=CC(C2CC2)N(Cc2sc3ccccc3c2Cl)C=C1C(=O)OCCS(C)(=O)=O (stereo not drawn)
z-score: -3.02
--
molecule: CC[C@@H](O[Si](C#C[Si](C(C)C)(C(C)C)C(C)C)(C(C)C)C(C)C)c1cn([C@H](CO)Cc2ccccc2)nn1
z-score: -0.348
--
molecule: C=CCNC(=O)[C@H]1[C@@H]2C(=O)O[C@@H](c3ccccc3)[C@@H](c3ccccc3)N2[C@@H](c2ccc(OCCO)cc2)[C@]12C(=O)Nc1ccc(C#Cc3ccc(OC)cc3)cc12
z-score: -2.39
--
molecule: CO[C@H]1O[C@H](CO)[C@@H](OC(=O)CCc2ccccc2)[C@@H]2OC(=O)[C@@H](Cc3ccc4ccccc4c3)C/C=C/C[C@H](Cc3ccc4ccccc4c3)C(=O)O[C@@H]12
z-score: -2.13
--
molecule: N#Cc1ccc(NN2C(C(O)c3ccc(B(O)O)cc3)C=CC3CN(c4ccccc4)C(=O)C32)cc1 (stereo not drawn)
z-score: -0.0223
--
molecule: O=C1N(Cc2ccccc2)Cc2ccccc2C[C@@]12COC(c1ccc(OCCCO)cc1)=N2
z-score: -2.08
--
molecule: COC(=O)[C@]1(Cc2ccccc2CN=[N+]=[N-])N=C(c2ccc(OCCCO)cc2)O[C@@H]1c1ccccc1N=[N+]=[N-]
z-score: -2.04
--
molecule: COC(=O)[C@]1(Cc2ccccc2N=[N+]=[N-])N=C(c2ccc(OCCCO)cc2)O[C@@H]1c1ccccc1CN=[N+]=[N-]
z-score: -1.96
--
molecule: Cc1ccc(S[C@]2(C(=O)NC3CC3)CC(=O)N(C3Cc4ccccc4C3)[C@@H]2c2ccc(CO)cc2I)cc1
z-score: -0.396
--
molecule: C=C(CCCC)/C(=C/C[C@@H](OC(C)=O)c1cccc(OCCO)c1)c1cc(C(=O)OC)ccc1OC
z-score: -3.06
--
molecule: COc1ccc(C#Cc2ccc3c(c2)[C@]2(C(=O)N3)[C@H](c3ccccc3OCCO)N3[C@H](c4ccccc4)[C@H](c4ccccc4)OC(=O)[C@H]3[C@@H]2C(=O)NC[C@H](O)c2ccccc2)cc1
z-score: -2.01
--
molecule: CC(C)C(=C=CC[C@H](O)c1cccc(OCCO)c1)C[C@H](O)c1ccccn1
z-score: -0.991
--
molecule: C=CCNC(=O)[C@@H]1[C@H]2C(=O)O[C@H](c3ccccc3)[C@H](c3ccccc3)N2[C@H](c2ccc(O)cc2)[C@@]12C(=O)Nc1ccc(C#CC3=CCCCC3)cc12
z-score: 0.155
--
molecule: CCCC[C@@H](O)C1=C(C)Cn2c(=O)n(-c3ccccc3)c(=O)n2[C@H]1CO
z-score: 0.0686
--
molecule: C=C(CCCC)C(=O)CC[C@@H](OC(C)=O)c1ccc(OCCO)cc1
z-score: -2.07
--
molecule: [N-]=[N+]=NCc1ccccc1[C@H]1OC(c2ccc(OCCCO)cc2)=N[C@@]1(CCS(=O)(=O)c1ccccc1)C(=O)O
z-score: 0.0638
--
molecule: COCCOC(=O)N1C(=O)[C@@]2(c3cc(C#CCCO)ccc31)[C@H](C(=O)N1CCN(c3ncccn3)CC1)[C@H]1C(=O)O[C@H](c3ccccc3)[C@H](c3ccccc3)N1[C@@H]2c1ccc(OCCO)cc1
z-score: -2.04
--
molecule: COC(=O)[C@@]1(Cc2ccc(OC)cc2)[C@H]2c3cc(C(=O)N(C)C)n(Cc4c(CO)[nH]cc(C)c4=O)c3C[C@H]2CN1C(=O)c1ccccc1
z-score: -0.116
--
molecule: CO[C@H]1O[C@H](CO)[C@@H](OC(=O)Nc2cccc(F)c2)[C@H](OC(=O)Nc2ccc3c(c2)OCO3)[C@@H]1OC(=O)Nc1ccc2c(c1)OCO2
z-score: -0.754
--
molecule: OCCCc1cc[n+](Cc2cc3c(cc2Br)OCO3)cc1
z-score: -1.96
--
molecule: [N-]=[N+]=NCc1ccccc1C[C@@]1(C(N)=O)N=C(c2ccc(OCCCO)cc2)O[C@@H]1c1ccccc1N=[N+]=[N-]
z-score: -2.41
--
molecule: CC(C)N1CC=CC23O[C@@H]4/C=C\CCCOC(=O)C4[C@H]2C(=O)N(C(C)CO)[C@@H]3C1=O (stereo partly drawn)
z-score: 0.261
